# Assay procedure: chemical genetic growth profiling, strain panel (AID 1159580);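 also: tested at 20 µM; growth read once vehicle control cultures reached saturation at 30 °C; lower values mean less growth of the strain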
# Experimental parameters: S. cerevisiae deletion strains, growth OD, locus YBR023C, strain chs3
The campaign covered roughly 5,500 compounds. About 2,000 (36%) were called active. Not shown: some 18% with an inconclusive outcome. Rule as the data show it: active = normalized growth mostly below about 0.91 (no sharp cut-off); inconclusive = no clear call, values can overlap the other calls; inactive = mostly above about 0.92. The list shows a part of the results.
Choose one outcome from this list and give only that: T = active, F = inactive

What outcome does the record of this test show for OC1C(O)C(O)C(O)C(O)C1O (stereo not drawn) ? F

Can you check `Nc1ccc(C(=O)O)c(O)c1` next? F

Same read-out for C=CCCCCCCCCCCCC(O)CC(O)CO (stereo not drawn) ? F

Now this one: CC[N+]1(C)CCCC(OC(=O)C(O)(c2ccccc2)c2ccccc2)C1 (stereo not drawn) F

Also, CC[C@]12C=CCN3CC[C@@]4(c5ccc(OC)cc5N(C)C4[C@@](O)(C(=O)OC)[C@@H]1OC(C)=O)[C@@H]32 (stereo partly drawn) please. F

Let us now turn to `CC(C)(Oc1ccc(Cl)cc1)C(=O)O` F

Next molecule up: `N[C@@H]1CONC1=O` F

Entry to check: `COc1ccc(-c2cc(=O)c3ccccc3o2)cc1OC` T

Check `CC(=O)Nc1cccc(O)c1` too. F

Could you do the same for `COc1ccc(C(=O)/C=C/c2ccccc2)cc1` , please? T

// next record `O=C(/C=C/c1ccccc1)c1ccc(O)cc1` T

// next record `COc1cc([C@@H]2c3cc4c(cc3[C@H](OC(C)=O)[C@H]3COC(=O)[C@H]23)OCO4)cc(OC)c1OC` F

// query: `O=c1c2ccccc2[se]n1-c1ccccc1` T

And then `COc1c(O)cccc1O` , what is it? F

Then this molecule: CCCCOc1cc(CC2CNC(=O)N2)ccc1OC (stereo not drawn) F

Then what about the molecule `Cc1cc2cc3c(C)cc(=O)oc3c(C)c2o1` ? F

`Nc1nc(N)c2nc(-c3ccccc3)c(N)nc2n1` , same question. F

How about `COc1ccc(-c2cc(=O)c3cc(OC)ccc3o2)cc1` ? F

Entry to check: `COc1c(O)cc2c(-c3ccccc3)cc(=O)oc2c1OC` F

Also `CC1=CCc2c(cc3oc(C)cc(=O)c3c2O)OC1` , if possible. F

Param item: `CC(=O)Nc1ccc(O)cc1` F

Another molecule: `COc1ccc(-c2cc(=O)c3ccccc3o2)cc1` T

Consider next the molecule `COc1ccc(-c2cc(=O)c3c(OC)c(OC)c(OC)c(OC)c3o2)cc1` in the same way. T
